experiment: Antiproliferative activity against human A375P cells; type: functional, cell-based
endpoint: pIC50
API: returns pIC50 as number; meaning -log10 of concentration in mol/L.

Cc1ccc(NC(=O)Nc2ccc(Cl)c(C(F)(F)F)c2)cc1NC(=O)c1ccccc1: 5.89

Consider now this further compound.
State, in one line, measured pIC50 of CC(=O)Nc1cc(NC(=O)c2ccc3c(c2)OCCO3)ccc1C
4.89

Ref: ChEMBL document CHEMBL2203179
